# measurement-target: Estrogen Receptor (ERα) in MCF-7 human ductal carcinoma breast cell line (Homo sapiens, UniProt P03372)
# Construct: endogenous in cells; host or cells: MCF-7
# Sequence (P03372 whole entry): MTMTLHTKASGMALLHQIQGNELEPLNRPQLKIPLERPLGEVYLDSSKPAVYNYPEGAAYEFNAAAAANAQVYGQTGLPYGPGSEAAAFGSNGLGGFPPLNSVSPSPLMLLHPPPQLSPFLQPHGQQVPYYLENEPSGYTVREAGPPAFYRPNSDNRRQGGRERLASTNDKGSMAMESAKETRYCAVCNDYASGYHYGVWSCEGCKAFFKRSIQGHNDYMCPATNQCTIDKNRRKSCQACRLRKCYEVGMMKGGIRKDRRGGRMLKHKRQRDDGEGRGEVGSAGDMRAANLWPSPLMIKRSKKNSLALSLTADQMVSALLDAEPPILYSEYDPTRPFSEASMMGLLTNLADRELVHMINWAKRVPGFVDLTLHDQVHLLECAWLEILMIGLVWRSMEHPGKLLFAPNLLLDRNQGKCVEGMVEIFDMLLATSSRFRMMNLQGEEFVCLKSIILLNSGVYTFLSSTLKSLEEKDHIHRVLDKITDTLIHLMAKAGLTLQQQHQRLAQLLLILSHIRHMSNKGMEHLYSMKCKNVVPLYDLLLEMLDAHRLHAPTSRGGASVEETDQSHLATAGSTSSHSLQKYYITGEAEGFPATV
# test-description: MCF-7 ER degradation assay (cell based immuno-fluorescence)
# experimental-context: MCF-7 cells, 18-22 hours incubation, 50% reduction of ERα expression; single experiment or average of two or more; read-out: MCF-7 ER degradation IC50
Please respond with reported DC50 for every item in the list.
State the value, then name its unit.

Known DC50 results, listed for orientation:
INSERT INTO results (structure_notation, measured_parameter, reported) VALUES
  ('Cc1ncsc1-c1ccc(CNC(=O)[C@@H]2C[C@@H](O)CN2C(=O)[C@@H](NC(=O)COCc2ccc(COc3cc(F)c([C@@H]4c5[nH]c6ccccc6c5C[C@@H](C)N4CC(C)(C)F)c(F)c3)nc2)C(C)(C)C)cc1', 'DC50', '0.6 nM'),
  ('Cc1ncsc1-c1ccc(CNC(=O)[C@@H]2C[C@@H](O)CN2C(=O)[C@@H](NC(=O)COCCC(C)(C)CCOc2cc(F)c([C@@H]3c4[nH]c5ccccc5c4C[C@@H](C)N3CC(C)(C)F)c(F)c2)C(C)(C)C)cc1', 'DC50', '1 nM'),
  ('Cc1ncsc1-c1ccc([C@H](C)NC(=O)[C@@H]2C[C@@H](O)CN2C(=O)[C@@H](NC(=O)COCCOCCCCOc2cc(F)c([C@@H]3c4[nH]c5ccccc5c4C[C@@H](C)N3CC(C)(C)F)c(F)c2)C(C)(C)C)cc1', 'DC50', '0.4 nM');

Consider the record given below.
Complete the entry with DC50 for `CC(=O)O[C@@H]1C[C@@H](C(=O)NCc2ccc(-c3scnc3C)cc2)N(C(=O)[C@@H](NC(=O)COCCOCCOCCOc2cc(F)c([C@@H]3c4[nH]c5ccccc5c4C[C@@H](C)N3CC(C)(C)F)c(F)c2)C(C)(C)C)C1` 1 nM
